# Tested on: NCI-H522
# assay: NCI tumour cell line growth inhibition, 48 h
The source made the active and inactive calls. Rule as the data show it: active = GI50 up to about 1.1 µM and inactive = higher.
Provide the recorded GI50 for the entries that follow.

The compound identified as O=C(O)Cc1cccc2c(=O)c3cccc([N+](=O)[O-])c3[nH]c12 registered its GI50 at 63.2 µM (inactive)

Per the record, COC1CCC(OS(C)(=O)=O)CO1 (stereo not given) has GI50 of > 100 µM (inactive)

For C=C(CO)CC(O)c1cc(OC)ccc1OC (stereo not given) the compound record lists GI50 as > 100 µM (inactive)

# GI50 (compound: CCOC(=O)c1c(O)cn2c1[nH]c1cccc3cccc2c31 ) is 46.5 µM (inactive)

Just so you know, measured GI50 for CCC1=CCN(c2cc(C)ccn2)OC1c1ccc(OC)cc1 (stereo not given) came out at 16 µM (inactive)

Per the record, COc1ccc2c(c1)[n+]([O-])c(C(=O)C/C(=N/NC(=O)C[N+](C)(C)C)C(=O)Nc1cccc(C)c1C)c(C)[n+]2[O-] has GI50 of > 100 µM (inactive)

response.value for COC(=O)OCC1OC(N2C(=O)NC(=O)C(Br)C2N=[N+]=[N-])CC1OC(=O)OC (stereo not given) (field: GI50) = 66.4 µM (inactive)

Please fill in: GI50 reported for CC(=O)O[C@H]1CC[C@@]2(C)C(=CC[C@@H]3C2CC[C@]2(C)C(=O)NC(=O)CC32)C1 (stereo not given in full) = 27.9 µM (inactive)

Form: compound = Cc1ccc(N2C(=O)/C(=C3\Sc4c(nc(C)[nH]c4=O)N3c3ccccc3)SC2=S)cc1 ; GI50 = 48.4 µM (inactive)

Per the record, Sc1nn2c(Cc3ccccc3)nnc2s1 has GI50 of > 100 µM (inactive)

* * *

Task for the reader: assign each of the following compounds its reported GI50.
# System: Hs-578T
# assay: NCI tumour cell line growth inhibition, 48 h
The source made the active and inactive calls. Cut-off read from the data, not from the text of the source: active = GI50 up to about 1.1 µM and inactive = higher.

// assay Hs-578T, entry CCN(CCN(CC)C(=O)NC)C(=O)NC , GI50 value = > 100 µM (inactive)

# GI50 measured on Hs-578T for item [N-]=[N+]=NCc1nc(N)c2c3c(sc2n1)CCCC3 = 2.72 µM (inactive)

Lab note: compound Fc1ccccc1C1SCc2nc3cc4ccccc4cc3n21 (configuration not stated) tested on Hs-578T; recorded GI50 was 26.5 µM (inactive)

Bench note, Hs-578T: CC(=O)NC(C)(C)C1CC=C(C)CC1 (configuration not stated) , GI50 reads > 100 µM (inactive)

Let me check: C(=N\c1ccc2c(c1)Cc1ccccc1-2)/c1ccccn1 , system Hs-578T, measured GI50 is 92.3 µM (inactive)

Record for C=CCC1(C)CCCN(Cc2ccccc2)C1=O (configuration not stated) under target or system Hs-578T: GI50 reported as > 10 µM (inactive)

Entry CCSc1ncnc2c(C3OC(CO)C(O)C3O)nsc12 (configuration not stated) , tested on Hs-578T, has a reported GI50 of > 100 µM (inactive)

Case N#Cc1nc(/C=C/c2cccs2)oc1N , Hs-578T, GI50 recorded as > 100 µM (inactive)

Measured GI50 for this entry CCC(=O)NC(Nc1cc(C)on1)(C(F)(F)F)C(F)(F)F on Hs-578T: > 100 µM (inactive)

Here COc1ccc2c(c1)CCC(CN1CCN(CCOC(c3ccc(F)cc3)c3ccc(F)cc3)CC1)=C2 was tested on Hs-578T, and its GI50 came to 19.3 µM (inactive)

Entry Cc1ccc2c(c1)/C(=N/Nc1ccccc1[N+](=O)[O-])C(=O)N2 ; assay system Hs-578T; GI50 recorded at 3.93 µM (inactive)

GI50 of C/C(CC1C2CCCC1C2)=N\NC(N)=O (configuration not stated) , assay on Hs-578T, is > 100 µM (inactive)

* * *

# System: MOLT-4
# assay: NCI tumour cell line growth inhibition, 48 h
Active and inactive are the calls of the source. Cut-off read from the data, not from the text of the source: active = GI50 up to about 1.1 µM and inactive = higher.
Return exactly one item of 1.0 = active, 0.0 = inactive

Call for entry CC12CC(c3ccccc3O1)C(C(=O)Nc1nccs1)C(=O)N2 (stereo unspecified) :
0.0

In this assay, the call recorded for COc1ccc(-c2[nH]c3ccccc3c2CCNS(=O)(=O)c2ccc(C)cc2)cc1 was what?
0.0

# outcome recorded in this test, key = CC1=C2CC(C)(C)CC(=O)C2(C)CCC1=O (stereo unspecified)
0.0

Recorded call for CN(C)c1ccc(/C=C2\Cc3ccccc3C2=O)cc1Br ?
0.0

How did this test come out for CCOC(=O)c1c(O)cn2c1[nH]c1cccc3cccc2c31 ?
0.0

Could you check what this test reported for O=C1c2ccccc2C2=Cc3ccccc3C(O)N12 (stereo unspecified) ?
0.0

Recorded test call requested for COc1ccc2c(c1)CCC(CN1CCN(CCOC(c3ccc(F)cc3)c3ccc(F)cc3)CC1)=C2
0.0

Test call for this compound, please: Cc1c(CNc2ccc(C(=O)NC(CCCNC(=O)c3ccccc3C(=O)O)C(=O)O)cc2)cnc2nc(N)nc(N)c12 (stereo unspecified)
1.0

Tell me the recorded outcome of this test for O=c1c2sc3ccccc3sc=2c(=O)c2c(Cl)c(Cl)c(Cl)c(Cl)c12 .
0.0

Which outcome was assigned to O=c1[nH]cc(NCCCl)c(=O)[nH]1 in this test?
0.0

Could you please tell me the result logged for CCCCC1Cc2cc(O)ccc2-c2nc3cc(O)ccc3n21.CCCCC1Cc2cc(O)ccc2-c2nc3ccc(O)cc3n21 (stereo unspecified) in this assay?
0.0

* * *

Kindly supply the reported GI50 values for the records listed here.
# System: KM12
# assay: NCI tumour cell line growth inhibition, 48 h
Active and inactive are the calls of the source. Rule as the data show it: active = GI50 up to about 1.1 µM and inactive = higher.

Measured GI50 of COc1nc2ncc([C@@H](O)[C@H](O)CO)nc2c(=O)[nH]1 : > 100 µM (inactive)

Form: compound = Cc1ccccc1C1OC1C(=O)c1ccccc1N (stereo not given) ; GI50 = 39.7 µM (inactive)

Form field GI50, entry Cc1ccc(N/C(SCc2ccccc2)=C(\C(Cl)=C(Cl)Cl)[N+](=O)[O-])c(C)c1 : 17.2 µM (inactive)

Per the record, C/C=C1/C[C@@H](C)[C@@](C)(O)C(=O)OCC2=CC[N+]3([O-])CC[C@@H](OC1=O)[C@@H]23 (stereo not given in full) [SENECIONINE N-OXIDE] has GI50 of > 100 µM (inactive)

So, Cc1c2c(n(CCc3ccccc3)c1C)N(C)N=C(C#N)S2(=O)=O ? Its GI50 was > 100 µM (inactive)

* * *

# Tested on: HCC 2998
# assay: NCI tumour cell line growth inhibition, 48 h
Activity calls are given as the source filed them. No stated cut-off is given here; in the data, active = GI50 up to about 1.1 µM and inactive = higher. Non-standard residues stand in square brackets, D forms with d. Residues, ends and D or L forms follow the SMILES beside them. ξ: configuration not given here. *: point of attachment. NMeF = CN[C@@H](Cc1ccccc1)C(=O)O; ξNMeV = CNC(C(=O)O)C(C)C; Boc = CC(C)(C)OC(=O)*; OBn = c1ccc(CO*)cc1
Give measured GI50 for each item. Keep answers brief.

So for NS(=O)(=O)c1ccc(NC(NC(=O)C(C(F)(F)F)C(F)(F)F)(C(F)(F)F)C(F)(F)F)cc1 , the logged GI50 turned out to be > 100 µM (inactive)

What the record says about COc1ccc(C2Oc3c(OC)cc(CCCO)cc3C2CO)cc1OC (stereo not given) : GI50 is > 100 µM (inactive)

Query Fc1cccc(F)c1C1SCc2nc3cc(Cl)ccc3n21 (stereo not given) yields GI50 of 22.7 µM (inactive)

The reported value for COc1ccc(C(c2cc(OC)c(OC)c(OC)c2)N2C(=O)CCC2C(=O)O)cc1 (stereo not given) in terms of GI50 is 50.2 µM (inactive)

Data point: [N-]=[N+]=NCc1nc(N)c2c3c(sc2n1)CCCC3 ; GI50 = 1.84 µM (inactive)

// NC(=O)OCC1=C(COC(N)=O)C(=O)c2c(O)ccc(O)c2C1=O : GI50 value = > 100 µM (inactive)

// recorded GI50 for CC(=O)OC[C@]1(C(=O)C(O)c2ccoc2)[C@H](C)CC[C@@]23COC(=O)C2=CCC[C@@H]31 (stereo not given in full) : > 10 µM (inactive)

Entry CC(=N\N)/C(C)=N/N=C(C)/C(C)=N/N , GI50 reported as > 100 µM (inactive)

Consider CC(=O)c1sc2c(c1OC(=O)c1ccc(Cl)cc1Cl)c(=O)n(-c1ccccc1)c(=S)n2-c1ccccc1 . Its measured GI50 is 6.37 µM (inactive)

Lab book: GI50 of Brc1ccc2c(c1)-c1nc3c(cc1CC2)CCc1ccc(Br)cc1-3 noted as > 100 µM (inactive)

Form: molecule = CCN(CC)CCCNC(=O)c1cc2cc(NC(=O)c3cc4cc([N+](=O)[O-])ccc4[nH]3)ccc2[nH]1 ; GI50 = > 100 µM (inactive)

Entry CCCCCCCCCCCCC(O)C1CCC(C(O)CCCCC(O)CCCCCC2CC(CC(C)=O)C(=O)O2)O1 (stereo not given) — recorded GI50 = 8.18 µM (inactive)

The value of GI50 measured for the molecule O=C(Nc1ccc(Cl)c(C(F)(F)F)c1)C(=O)c1c(O)c2ccccc2oc1=O turned out to be > 100 µM (inactive)

# molecule CC(=O)O[C@H]1CC[C@@]2(C)C(=CC[C@@H]3C2CC[C@]2(C)C(=O)NC(=O)CC32)C1 (stereo not given in full) ; its GI50 = > 100 µM (inactive)

Briefly, GI50 measured for O=C(O)C1Cc2c([nH]c3ccccc23)C=N1 (stereo not given) : > 100 µM (inactive)

Record CCCCN1C(=O)C2Cc3c([nH]c4ccccc34)C(c3cccc(O)c3)N2C1=O (stereo not given) , field GI50: 18.9 µM (inactive)

For this molecule ( Cc1ccc(C(=O)N/N=C(\N=N\c2cccc([N+](=O)[O-])c2)c2ccc(N(CCC#N)CCC#N)cc2C)cc1 ), measured GI50 is 30.9 µM (inactive)

Summary for this molecule, COc1ccc(NC(=O)CC(=O)n2nc(C)c(/N=N/c3ccccc3C(=O)O)c2C)cc1 : GI50 is > 100 µM (inactive)

The molecule listed as COC(=O)C1=C2CCC(=O)[C@@]2(C)C(OC(C)=O)C=CC1 (stereo not given in full) shows GI50 equal to > 100 µM (inactive)

Lab note: measured GI50 of COc1ccc(C(=O)c2[nH]c(Nc3ccc(Cl)cc3)c(C(=S)Nc3ccccc3)c2N)cc1 was > 100 µM (inactive)

GI50 in this record for COc1ccc2nc3cc(Cl)ccc3c(Sc3ccc([N+](=O)[O-])cc3C)c2c1 : > 100 µM (inactive)

// O=[N+]([O-])c1ccc(Nc2nc3ccccc3s2)cc1 : GI50 value = 25.2 µM (inactive)

GI50 reading for COc1nc(O)c(N)c(NC2OC(CO)C(O)C(O)C2O)n1 (stereo not given) : > 100 µM (inactive)

Per the record, CN(c1nc(=[N+](C)C)ss1)C1CCCCC1 has GI50 of > 100 µM (inactive)

GI50 recorded for this molecule, Cn1nc(C(=O)N2CC(CCl)c3c2cc(N)c2ccccc32)cc1NC(=O)Nc1cc(C(=O)N2CC(CCl)c3c2cc(N)c2ccccc32)nn1C (stereo not given) , is 1.21 µM (inactive)

Recorded result, O=C(O)c1nn(-c2ccccc2)nc1-c1nn(-c2ccccc2)nc1C(=O)O , GI50: > 100 µM (inactive)

Notebook: Cc1c2ccccc2cc2nc3ccccc3n12 , GI50 read as > 10 µM (inactive)

Memo: CCCCC1=CSC(c2ccccc2)=C(c2ccccc2)S1 , reported GI50: 37.6 µM (inactive)

Input C[C@H](Nc1nc(N)c(N=O)c(=O)n1C)C(=O)O . Output GI50: > 10 µM (inactive)

Recorded result, CCOC(=O)C1(C(=O)OCC)[C@H](c2ccccc2)C2=NO[C@@H]3CCC[C@H]1[C@H]23 , GI50: 22.1 µM (inactive)

Consider NCCSCc1ccccc1Cl . Its measured GI50 is 18.6 µM (inactive)

# GI50 of CC(=S)N/C=C1/C(=O)C=C(C)OC1=O = > 100 µM (inactive)

Sure, the documented GI50 for CC1=C2CC(C)(C)CC(=O)C2(C)CCC1=O (stereo not given) is > 100 µM (inactive)

// recorded GI50 for C=C(CO)CC(O)c1cc(OC)ccc1OC (stereo not given) : > 100 µM (inactive)

# GI50 (molecule: CC(C)C(C(=O)N1CCC[C@@H]1C(=O)OCc1ccccc1)N(C)C(=O)C(C(C)C)N(C)C(=O)[C@H](Cc1ccccc1)N(C)C(=O)[C@H](NC(=O)OC(C)(C)C)C(C)C (stereo not given in full) (Boc-[dV][NMeF][ξNMeV][ξNMeV][dP]-OBn) ) is > 100 µM (inactive)

GET /value?item= CC(=O)NC(C)(C)C1CC=C(C)CC1 (stereo not given) &field=GI50 returns > 100 µM (inactive)

Briefly, GI50 measured for CC(=O)OCC1OC(n2c3c(cc(C#N)c2=S)CCCCCC3)C(OC(C)=O)C(OC(C)=O)C1OC(C)=O (stereo not given) : 27.5 µM (inactive)

Notebook: NC(=O)CC(/N=C1\C(=O)OC(C(O)CO)\C1=N/C(CC(N)=O)C(=O)O)C(=O)O (stereo not given) , GI50 read as > 100 µM (inactive)

The reported GI50 of the molecule Cc1ccc(N/C(SCc2ccccc2)=C(\C(Cl)=C(Cl)Cl)[N+](=O)[O-])c(C)c1 was 45.6 µM (inactive)

response.value for COC(=O)/C(C#N)=C1\CCC(O)N1C (stereo not given) (field: GI50) = > 100 µM (inactive)
